Provenance of the data: paper PMC11912475

# Study system: Serotonin 5-HT5A (Homo sapiens, UniProt P47898)
# Construct: host or cells: CHO-K1
# Sequence (P47898 whole entry): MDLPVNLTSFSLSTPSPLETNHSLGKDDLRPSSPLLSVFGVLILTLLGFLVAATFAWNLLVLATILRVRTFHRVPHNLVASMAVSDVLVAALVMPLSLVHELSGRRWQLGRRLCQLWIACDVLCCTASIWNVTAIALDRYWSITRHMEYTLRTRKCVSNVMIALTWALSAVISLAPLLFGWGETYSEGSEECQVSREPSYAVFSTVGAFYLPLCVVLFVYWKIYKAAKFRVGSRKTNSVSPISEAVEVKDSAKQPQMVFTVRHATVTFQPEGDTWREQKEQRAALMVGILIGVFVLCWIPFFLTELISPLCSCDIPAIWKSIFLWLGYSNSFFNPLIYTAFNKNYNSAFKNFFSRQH
# Protocol text: Radioligand displacement binding assay, [3H]LSD, 5-HT5A
# Measurement conditions: 1 μM

{"Molecule": "CC[C@H](O)C(C[C@H](C)NC)(c1ccccc1)c1ccccc1 [(3S,6S)-NML]", "inhibition at 1 µM [%]": 1}
{"Molecule": "CC[C@@H](O)C(C[C@H](C)N)(c1ccccc1)c1ccccc1 [(3R,6S)-DNML, (3R,6S)-6-amino-4,4-diphenylheptan-3-ol]", "inhibition at 1 µM [%]": -1}
{"Molecule": "CCC(=O)C(C[C@H](C)N(C)C)(c1ccccc1)c1ccccc1 [(S)-methadone, reference compound]", "inhibition at 1 µM [%]": 24}
{"Molecule": "CCC1=N[C@H](C)CC1(c1ccccc1)c1ccccc1 [(R)-EMDP]", "inhibition at 1 µM [%]": 1}
